# ASSAYED_TARGET: UniProtKB P56658
# Sequence (P56658 2-363): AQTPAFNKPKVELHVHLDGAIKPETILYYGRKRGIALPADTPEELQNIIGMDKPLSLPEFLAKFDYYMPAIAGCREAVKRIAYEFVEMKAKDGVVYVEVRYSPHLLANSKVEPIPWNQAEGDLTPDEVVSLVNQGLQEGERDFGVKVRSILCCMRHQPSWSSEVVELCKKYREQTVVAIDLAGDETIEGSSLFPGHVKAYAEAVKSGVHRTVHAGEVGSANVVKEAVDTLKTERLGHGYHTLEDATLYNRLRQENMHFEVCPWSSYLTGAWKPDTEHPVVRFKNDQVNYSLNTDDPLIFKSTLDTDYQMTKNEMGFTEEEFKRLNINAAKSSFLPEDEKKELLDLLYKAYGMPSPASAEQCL
# ASSAY_NOTES: biochemical
MEASUREMENT_KIND: pIC50
One number for each entry, as −log10 of the molar value.

# query: pIC50 of entry CCCCCC[C@H]([C@H](C)O)n1cnc2c(N)ncnc21 [EHNA]
7.63

---

# ASSAYED_TARGET: UniProt:P56658
# ASSAY_NOTES: fluorescence assay of tzA to tzI deamination, IC50 with Hill fit
# Type: biochemical
MEASUREMENT_KIND: pIC50
Give bare numbers, as −log10 of the molar value.

Any idea what pIC50 came out for `CNc1cc(Cl)nc2c1ncn2[C@@H]1O[C@H](CO)[C@@H](O)[C@H]1O` on UniProt:P56658?
4.68
